target: KRAS G12V (Homo sapiens, UniProt P01116+P62937, G12V); test: Disruption of BRAF RBD interaction with Ras (FRET / MOA assay, with Cyclophilin A); type: biochemical; conditions: KRAS G12V FRET data IC50, KRAS G12V
Sequence (P01116 1-169 isoform P01116-2 G12V limits assumed, one chain of several): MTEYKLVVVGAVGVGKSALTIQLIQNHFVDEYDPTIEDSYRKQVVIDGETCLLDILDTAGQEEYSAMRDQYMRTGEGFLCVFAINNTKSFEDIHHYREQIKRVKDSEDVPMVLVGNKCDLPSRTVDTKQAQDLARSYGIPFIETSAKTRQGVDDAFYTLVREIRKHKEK
Kindly supply the reported IC50 values for the records listed here.

Which measured IC50 value corresponds to CCn1c(-c2cnccc2COC)c2c3cc(ccc31)-c1cc(O)cc(c1)C[C@H](NC(=O)[C@H](C(C)C)N(C)C(=O)[C@H]1CCCO1)C(=O)N1CCC[C@H](N1)C(=O)OCC(C)(C)C2 ?
0.1 to 1 µM

Which measured IC50 value corresponds to CCn1c(-c2cnccc2COC)c2c3cc(ccc31)-c1cc(O)cc(c1)C[C@H](NC(=O)[C@H](C(C)C)N(C)C(=O)CO)C(=O)N1CCC[C@H](N1)C(=O)OCC(C)(C)C2 ?
0.1 to 1 µM

Which measured IC50 value corresponds to CCn1c(-c2cccnc2[C@H](C)OC)c2c3cc(ccc31)-c1csc(n1)C[C@H](NC(=O)N1CCCC1)C(=O)N1CCC[C@H](N1)C(=O)OCC(C)(C)C2 ?
0.1 to 1 µM

---

target: KRAS G13D (Homo sapiens, UniProt P01116+P62937, G13D); test: Ras-Raf disruption / FRET / MOA assay (BRAF RBD); assay type: biochemical; settings: Ras-Raf disruption, with Cyclophilin A; read-out: KRAS G13D FRET data IC50
Sequence (P01116 1-169 isoform P01116-2 G13D limits assumed, one chain of several): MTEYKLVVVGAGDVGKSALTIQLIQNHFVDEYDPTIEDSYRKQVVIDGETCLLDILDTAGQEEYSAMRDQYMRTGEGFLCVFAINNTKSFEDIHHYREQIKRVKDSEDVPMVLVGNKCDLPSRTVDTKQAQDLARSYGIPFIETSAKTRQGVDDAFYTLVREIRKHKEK
endpointName: IC50

Missing value: IC50, KRAS G13D (Homo sapiens, UniProt P01116+P62937, G13D), entry CCn1c(-c2cccnc2[C@H](C)OC)c2c3cc(ccc31)-c1csc(n1)C[C@H](NC(=O)[C@H](C(C)C)N(C)C(=O)N1CC[C@@H](N(C)C(=O)[C@@H]3CN3)C1)C(=O)N1CCC[C@H](N1)C(=O)OCC(C)(C)C2 (atropisomer, axis not shown) [Example 227] . Fill in?
100 to 1000 nM

Missing value: IC50, KRAS G13D (Homo sapiens, UniProt P01116+P62937, G13D), entry CCn1c(-c2cccnc2[C@H](C)OC)c2c3cc(ccc31)-c1cccc(c1)C[C@H](NC(=O)[C@H](C(C)C)N(C)C(=O)[C@H]1CC[C@H](N=C=NCc3ccccc3OC)C1)C(=O)N1CCC[C@H](N1)C(=O)OCC(C)(C)C2 [Example 76] . Fill in?
> 10000 nM

---

Kindly supply the reported IC50 values for the records listed here.
biological target: KRAS G12C (Homo sapiens, UniProt P01116+P62937, G12C); assay: Ras-Raf disruption / FRET / MOA assay (BRAF RBD); type: biochemical; settings: Ras-Raf disruption, with Cyclophilin A; read-out: KRAS G12C FRET data IC50
Sequence (P01116 1-169 isoform P01116-2 G12C limits assumed, one chain of several): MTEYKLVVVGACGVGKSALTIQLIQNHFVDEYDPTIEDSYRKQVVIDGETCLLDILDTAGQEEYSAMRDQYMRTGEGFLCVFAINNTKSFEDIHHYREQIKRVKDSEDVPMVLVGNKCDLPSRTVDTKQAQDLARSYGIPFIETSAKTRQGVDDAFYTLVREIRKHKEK

Which measured IC50 value corresponds to CCn1c(-c2cccnc2[C@H](C)OC)c2c3cc(ccc31)-c1csc(n1)C[C@H](NC(=O)[C@H](C(C)C)N(C)C(=O)N(C)CCN(C)C(=O)[C@@H]1CN1)C(=O)N1CCC[C@H](N1)C(=O)OCC(C)(C)C2 (atropisomer, axis not shown) ?
10 to 100 nM

Which measured IC50 value corresponds to CCn1c(-c2cccnc2[C@H](C)OC)c2c3cc(ccc31)-c1cc(O)cc(c1)C[C@H](NC(=O)[C@H](C(C)C)N(C)C(=O)N1CCCN(C(=O)[C@H]3CN3)CC1)C(=O)N1CCC[C@H](N1)C(=O)OCC(C)(C)C2 (atropisomer, axis not shown) ?
< 10 nM

Which measured IC50 value corresponds to CCn1c(-c2cccnc2[C@H](C)OC)c2c3cc(ccc31)-c1csc(n1)C[C@H](NC(=O)[C@H](C(C)C)N(C)C(=O)N1CC[C@@H](N(C)C(=O)[C@@H]3CN3)C1)C(=O)N1CCC[C@H](N1)C(=O)OCC(C)(C)C2 (atropisomer, axis not shown) ?
100 to 1000 nM

Which measured IC50 value corresponds to CCn1c(-c2cccnc2[C@H](C)OC)c2c3cc(ccc31)-c1cc(O)cc(c1)C[C@H](NC(=O)[C@H](C(C)C)N(C)C(=O)CC1CN(C(=O)[C@@H]3CN3)C1)C(=O)N1CCC[C@H](N1)C(=O)OCC(C)(C)C2 ?
10 to 100 nM

---

target: NRAS Q61R (Homo sapiens, UniProt P01111+P62937, Q61R); assay: Disruption of BRAF RBD interaction with Ras (FRET / MOA assay, with Cyclophilin A); assay type: biochemical; settings: NRAS Q61R; read-out: NRAS Q61R FRET data IC50
Sequence (P01111 whole entry Q61R): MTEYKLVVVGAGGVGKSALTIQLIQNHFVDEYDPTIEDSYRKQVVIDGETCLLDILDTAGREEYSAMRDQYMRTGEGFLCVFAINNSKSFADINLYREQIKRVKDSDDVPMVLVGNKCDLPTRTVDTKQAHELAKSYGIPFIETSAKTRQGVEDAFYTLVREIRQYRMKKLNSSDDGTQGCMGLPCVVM
Sequence (P62937 whole entry): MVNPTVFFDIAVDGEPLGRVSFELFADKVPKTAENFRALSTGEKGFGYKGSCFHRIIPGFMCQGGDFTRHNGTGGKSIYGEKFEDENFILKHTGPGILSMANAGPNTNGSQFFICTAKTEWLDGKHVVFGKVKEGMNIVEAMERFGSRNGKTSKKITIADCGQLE
pIC50: −log10 of the molar value.
endpointName: pIC50

Which measured pIC50 value corresponds to CCn1c(-c2cccnc2[C@H](C)OC)c2c3cc(ccc31)-c1csc(n1)C[C@H](NC(=O)[C@H](C(C)C)N(C)C(=O)N1C[C@H]3OCCN(C)[C@H]3C1)C(=O)N1CCC[C@H](N1)C(=O)OCC(C)(C)C2 (atropisomer, axis not shown) [Example A451] ?
6.00 to 7.00

Which measured pIC50 value corresponds to CCn1c(-c2cccnc2[C@H](C)OC)c2c3cc(ccc31)-c1cc(O)cc(c1)C[C@H](NC(=O)[C@H](C(C)C)N(C)C(=O)[C@@H]1OCC[C@@H]1c1cccnc1)C(=O)N1CCC[C@H](N1)C(=O)OCC(C)(C)C2 (atropisomer, axis not shown) [Example A546] ?
7.00 to 8.00

Which measured pIC50 value corresponds to CCn1c(-c2cccnc2[C@H](C)OC)c2c3cc(ccc31)-c1csc(n1)C[C@H](NC(=O)[C@H](C(C)C)N(C)C(=O)N1CC3(CN(C)CCO3)C1)C(=O)N1CCC[C@H](N1)C(=O)OCC(C)(C)C2 [Example A499] ?
6.00 to 7.00

Which measured pIC50 value corresponds to CCn1c(-c2cccnc2[C@H](C)OC)c2c3cc(ccc31)-c1csc(n1)C[C@H](NC(=O)[C@H](C(C)C)N(C)C(=O)N1C[C@H](C)N(C)C[C@@H]1C)C(=O)N1CCC[C@H](N1)C(=O)OCC(C)(C)C2 [Example A283] ?
6.00 to 7.00

---

biological target: NRAS WT (Homo sapiens, UniProt P01111+P62937); test: Disruption of BRAF RBD interaction with Ras (FRET / MOA assay, with Cyclophilin A); type: biochemical; settings: NRAS WT; read-out: NRAS WT FRET data IC50
Sequence (P01111 whole entry, one chain of several): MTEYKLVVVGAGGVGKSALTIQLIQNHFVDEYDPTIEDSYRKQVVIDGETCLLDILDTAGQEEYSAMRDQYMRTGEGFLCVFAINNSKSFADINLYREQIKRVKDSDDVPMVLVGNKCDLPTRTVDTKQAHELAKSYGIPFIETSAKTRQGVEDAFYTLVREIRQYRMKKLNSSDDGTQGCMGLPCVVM
endpointName: IC50

Which measured IC50 value corresponds to CCn1c(-c2cccnc2[C@H](C)OC)c2c3cc(ccc31)-c1csc(n1)C[C@H](NC(=O)[C@H](C(C)C)N(C)C(=O)N(C)C1(COC)COC1)C(=O)N1CCC[C@H](N1)C(=O)OCC(C)(C)C2 ?
100 to 1000 nM

Which measured IC50 value corresponds to CCn1c(-c2cccnc2[C@H](C)OC)c2c3cc(ccc31)-c1csc(n1)C[C@H](NC(=O)[C@H](C(C)C)N(C)C(=O)N1CC3(C1)CS(=O)(=O)CCN3C)C(=O)N1CCC[C@H](N1)C(=O)OCC(C)(C)C2 ?
1000 to 10000 nM

Which measured IC50 value corresponds to CCn1c(-c2cccnc2[C@H](C)OC)c2c3cc(ccc31)-c1nc(cs1)C[C@H](NC(=O)[C@H](C(C)C)N(C)C(C)=O)C(=O)N1CCC[C@H](N1)C(=O)OCC(C)(C)C2 ?
1000 to 10000 nM

Which measured IC50 value corresponds to CCn1c(-c2cc(N3CCN(C)CC3)cnc2[C@H](C)OC)c2c3cc(ccc31)-c1csc(n1)C[C@H](NC(C)=O)C(=O)N1CCC[C@H](N1)C(=O)OCC(C)(C)C2 [Example A321] ?
100 to 1000 nM

Which measured IC50 value corresponds to CCn1c(-c2cc(N3CCN(C)CC3)cnc2[C@H](C)OC)c2c3cc(ccc31)-c1csc(n1)C[C@H](NC(=O)[C@H](C(C)C)N(C)C(=O)[C@H]1CCNC1=O)C(=O)N1CCC[C@H](N1)C(=O)OCC(C)(C)C2 (single isomer, unassigned) ?
100 to 1000 nM

Which measured IC50 value corresponds to CCn1c(-c2cccnc2[C@H](C)OC)c2c3cc(ccc31)-c1csc(n1)C[C@H](NC(=O)[C@H](C(C)C)N(C)C(=O)N(C)C[C@@H]1CCCN1C)C(=O)N1CCC[C@H](N1)C(=O)OCC(C)(C)C2 ?
100 to 1000 nM

Which measured IC50 value corresponds to CCn1c(-c2cccnc2[C@H](C)OC)c2c3cc(ccc31)-c1csc(n1)C[C@H](NC(=O)[C@H](C(C)C)N(C)C(=O)N1CC3(CC(N(C)CCOC)C3)C1)C(=O)N1CCC[C@H](N1)C(=O)OCC(C)(C)C2 (atropisomer, axis not shown) ?
100 to 1000 nM

Which measured IC50 value corresponds to CCn1c(-c2cccnc2[C@H](C)OC)c2c3cc(ccc31)-c1csc(n1)C[C@H](NC(=O)[C@H](C(C)C)N(C)C(=O)N1CCN3CCOC[C@H]3C1)C(=O)N1CCC[C@H](N1)C(=O)OCC(C)(C)C2 ?
100 to 1000 nM

Which measured IC50 value corresponds to CCn1c(-c2cccnc2[C@H](C)OC)c2c3cc(ccc31)-c1csc(n1)C[C@H](NC(=O)[C@H](C(C)C)N1CCC3(CCN(S(C)(=O)=O)C3)C1=O)C(=O)N1CCC[C@H](N1)C(=O)OCC(C)(C)C2 (mixture of isomers) ?
1000 to 10000 nM

Which measured IC50 value corresponds to CCn1c(-c2cccnc2[C@H](C)OC)c2c3cc(ccc31)-c1cc(O)cc(c1)C[C@H](NC(=O)[C@H](C1CCCC1)N(C)C(=O)N1CCS(=O)(=NC)CC1)C(=O)N1CCC[C@H](N1)C(=O)OCC(C)(C)C2 ?
10 to 100 nM

Which measured IC50 value corresponds to CCn1c(-c2cccnc2[C@H](C)OC)c2c3cc(ccc31)-c1csc(n1)C[C@H](NC(=O)[C@H](C(C)C)N(C)C(=O)N1CC([C@H](C)CO)C1)C(=O)N1CCC[C@H](N1)C(=O)OCC(C)(C)C2 (atropisomer, axis not shown) ?
10 to 100 nM

Which measured IC50 value corresponds to CCn1c(-c2cccnc2[C@H](C)OC)c2c3cc(ccc31)-c1csc(n1)C[C@H](NC(=O)[C@H](C(C)C)N(C)C(=O)N1CC(CO)C1)C(=O)N1CCC[C@H](N1)C(=O)OCC(C)(C)C2 (atropisomer, axis not shown) ?
10 to 100 nM

Which measured IC50 value corresponds to CCn1c(-c2cccnc2[C@H](C)OC)c2c3cc(ccc31)-c1csc(n1)C[C@H](NC(=O)[C@H](C(C)C)N(C)C(=O)N1CCC[C@@H](N(C)C)C1)C(=O)N1CCC[C@H](N1)C(=O)OCC(C)(C)C2 (atropisomer, axis not shown) ?
10 to 100 nM

Which measured IC50 value corresponds to CCn1c(-c2cccnc2[C@H](C)OC)c2c3cc(ccc31)-c1csc(n1)C[C@H](NC(=O)[C@H](C(C)C)N(C)C(=O)N1CC(OC)C1)C(=O)N1CCC[C@H](N1)C(=O)OCC(C)(C)C2 (racemic) ?
100 to 1000 nM

Which measured IC50 value corresponds to CCn1c(-c2cccnc2[C@H](C)OC)c2c3cc(ccc31)-c1csc(n1)C[C@H](NC(=O)[C@H](C(C)C)N(C)C(=O)N1C[C@H]3CN(C)C[C@H]31)C(=O)N1CCC[C@H](N1)C(=O)OCC(C)(C)C2 ?
100 to 1000 nM

Which measured IC50 value corresponds to CCn1c(-c2cccnc2[C@H](C)OC)c2c3cc(ccc31)-c1csc(n1)C[C@H](NC(=O)[C@H](C(C)C)N(C)C(=O)N1CC3(CC3)C1)C(=O)N1CCC[C@H](N1)C(=O)OCC(C)(C)C2 (atropisomer, axis not shown) ?
100 to 1000 nM

Which measured IC50 value corresponds to CCn1c(-c2cccnc2[C@H](C)OC)c2c3cc(ccc31)-c1csc(n1)C[C@H](NC(=O)[C@H](C(C)C)N(C)C(=O)N1CC(N(C)S(C)(=O)=O)C1)C(=O)N1CCC[C@H](N1)C(=O)OCC(C)(C)C2 (atropisomer, axis not shown) ?
100 to 1000 nM
